- test method notes: Pharmacokinetic study of 153 (and metabolite endothal) in SD rats, iv and po; plasma, liver, brain
- Assay type: in vivo
- run parameters: female, Sprague-Dawley (SD), rat, in vivo, iv, 1.25 mg/kg, Brain, 1.25 mg/kg IV, rat 2; read-out: Cmax
assay readout: Cmax
Dear colleague, please send the value followed by its unit.

Query: What value of measured Cmax is listed for CCCOC(=O)C1C2CCC(O2)C1C(=O)N1CCN(C)CC1 (stereo not shown) ?
Response: 40.3 ng/g

----------
- test method notes: Pharmacokinetic study of 157 (and metabolite endothal) in SD rats, iv and po; plasma, liver, brain
- Type: in vivo
- run parameters: female, Sprague-Dawley (SD), rat, in vivo, po, 1.5 mg/kg, PO 1.5 mg/kg, 2 hr, Mean; read-out: 157 plasma concentration
assay readout: concentration at 2 h

Query: Need concentration at 2 h of CCCCCCCOC(=O)C1C2CCC(O2)C1C(=O)N1CCN(C)CC1 (stereo not shown) , thanks.
Response: 0.249 ng/mL
